I'd appreciate it if you could supply Kd values for the items below.
# system.tested: Mitogen-activated protein kinase kinase kinase kinase 2 (Homo sapiens)
# Sequence (Q12851 whole entry, the tested form may be a part): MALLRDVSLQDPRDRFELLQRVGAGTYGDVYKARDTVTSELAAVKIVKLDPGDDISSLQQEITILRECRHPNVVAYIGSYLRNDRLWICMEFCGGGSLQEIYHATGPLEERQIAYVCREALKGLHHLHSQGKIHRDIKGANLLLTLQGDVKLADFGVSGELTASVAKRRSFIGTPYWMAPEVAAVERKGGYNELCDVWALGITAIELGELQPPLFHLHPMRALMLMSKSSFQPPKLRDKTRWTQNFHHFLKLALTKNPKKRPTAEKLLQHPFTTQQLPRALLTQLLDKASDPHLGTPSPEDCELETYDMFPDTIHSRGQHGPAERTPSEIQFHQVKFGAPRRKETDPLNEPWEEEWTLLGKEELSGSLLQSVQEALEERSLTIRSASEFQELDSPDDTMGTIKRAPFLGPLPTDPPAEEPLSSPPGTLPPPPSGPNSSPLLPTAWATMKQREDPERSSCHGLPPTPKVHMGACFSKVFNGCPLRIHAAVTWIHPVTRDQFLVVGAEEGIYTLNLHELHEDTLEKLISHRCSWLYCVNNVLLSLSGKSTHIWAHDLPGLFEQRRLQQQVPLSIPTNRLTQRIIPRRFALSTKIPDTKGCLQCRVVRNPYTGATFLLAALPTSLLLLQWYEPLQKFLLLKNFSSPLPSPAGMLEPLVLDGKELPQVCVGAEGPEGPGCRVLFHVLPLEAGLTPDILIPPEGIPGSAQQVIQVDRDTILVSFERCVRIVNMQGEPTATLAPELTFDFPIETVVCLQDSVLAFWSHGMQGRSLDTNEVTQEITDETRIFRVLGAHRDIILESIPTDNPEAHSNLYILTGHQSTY
# test.method.notes: Binding affinity to human wild type GCK (M1 to G318 residues) expressed in mammalian expression system by KINOMEScan assay
Give bare numbers, in nM.

compound_smiles=NC(=O)c1cccnc1Nc1nc(-c2ccc3c(c2)OCO3)cc2nccn12 system_tested="Mitogen-activated protein kinase kinase kinase kinase 2 (Homo sapiens)" property_label=Kd unit_abbreviation=nM obs_value=49
compound_smiles=COc1ccc(-c2cccc(-c3cc4nccn4c(Nc4ncccc4C(N)=O)n3)c2)cc1 system_tested="Mitogen-activated protein kinase kinase kinase kinase 2 (Homo sapiens)" property_label=Kd unit_abbreviation=nM obs_value=220
compound_smiles=Cc1ccccc1-c1cc2nccn2c(Nc2ncccc2C(N)=O)n1 system_tested="Mitogen-activated protein kinase kinase kinase kinase 2 (Homo sapiens)" property_label=Kd unit_abbreviation=nM obs_value=100

Now consider the entry below.
Summary: COc1cccc(-c2cc3nccn3c(Nc3ncccc3C(N)=O)n2)c1 , Mitogen-activated protein kinase kinase kinase kinase 2 (Homo sapiens), Kd = 59
